The measurements presented in this section are drawn from patent US9975882B2.

- Tested on: BTK (IL-6 production in primary CD19+ B cells)
- assay.comment: Inhibition of IL-6 production in B cells co-stimulated with ODN 2006 and anti-hIgD
- Format: cell-based
- condition.notes: B-cell, anti-human IgD + ODN 2006
Mark Criterion met only for IC50 values smaller than 1 nM; exact matches and larger values are Criterion not met.

CC#CC(=O)N1CC[C@]2(C1)C[C@H](n1nc(-c3cn(Cc4cccc(C(F)(F)F)c4)nc3C)c(C(N)=O)c1N)C2 | Criterion not met
CC#CC(=O)N1CC[C@]2(C1)C[C@H](n1nc(-c3cnn([C@H](C)c4cccc(C(F)(F)F)c4)c3)c(C(N)=O)c1N)C2 | Criterion not met
CC#CC(=O)N1CC[C@]2(C1)C[C@H](n1nc(-c3cnn(Cc4cc(C(F)(F)F)ccc4F)c3)c(C(N)=O)c1N)C2 | Criterion not met

// query Quick check: IC50 of "CC#CC(=O)N1CC[C@]2(C1)C[C@H](n1nc(-c3cnn(Cc4cccc(C(F)(F)F)c4)c3)c(C(N)=O)c1NC)C2" under 1 nM?
// result Criterion not met

// query Quick check: IC50 of "CC#CC(=O)N1CC[C@]2(C1)C[C@H](n1nc(-c3cnn(Cc4cccc(F)c4F)c3)c(C(N)=O)c1N)C2" under 1 nM?
// result Criterion met

// query Quick check: IC50 of "CC#CC(=O)N1CC[C@]2(C1)C[C@H](n1nc(-c3cnn(Cc4cccc(C(F)(F)F)c4C#N)c3)c(C(N)=O)c1N)C2" under 1 nM?
// result Criterion not met

---

- assay.comment: Plasma compound exposure in rats (tail bleed, day 6)
- Type: in vivo
- condition.notes: rat, 10 mg/kg po qd
outcome.measure: Cmax (nM)
Record the value in nM, omitting the unit from your answer.

// query Requested read-out: Cmax. Entry: CC#CC(=O)N1CCC2(CC(n3nc(-c4ccc(OC(C)C)cc4)c(C(N)=O)c3N)C2)C1 (stereo not shown)
// result 182

---

- Tested on: BTK (IL-6 production in primary CD19+ B cells)
- assay.comment: Inhibition of IL-6 production in B cells co-stimulated with ODN 2006 and anti-hIgD
- Type: cell-based
- condition.notes: B-cell, anti-human IgD + ODN 2006
Collected pIC50 values appear next to each entry.
Scale for pIC50: -log10 of concentration given in mol/L; no unit attached.

CC#CC(=O)N1CC[C@]2(C1)C[C@H](n1nc(-c3cnn(Cc4cccc(C5CC5)c4)c3)c(C(N)=O)c1N)C2 [Example 51] | 8.72

// query Requested read-out: pIC50. Entry: CC#CC(=O)N1CC[C@]2(C1)C[C@H](n1nc(-c3cnn(Cc4cccc(C(F)F)c4)c3)c(C(N)=O)c1N)C2 [Example 36]
// result 9.30

// query Requested read-out: pIC50. Entry: CC#CC(=O)N1CC[C@]2(C1)C[C@H](n1nc(-c3cnn(Cc4ccc(F)c(C(F)(F)F)c4)c3)c(C(N)=O)c1N)C2 [Example 30]
// result 8.62

// query Requested read-out: pIC50. Entry: CC#CC(=O)N1CC[C@]2(C1)C[C@H](n1nc(-c3cnn(Cc4cccc(C(F)(F)F)n4)c3)c(C(N)=O)c1N)C2 [Example 14]
// result 8.96

// query Requested read-out: pIC50. Entry: CC#CC(=O)N1CC[C@]2(C1)C[C@H](n1nc(-c3cnn(Cc4cc(C(F)(F)F)ccc4Cl)c3)c(C(N)=O)c1N)C2 [Example 8]
// result 8.60

// query Requested read-out: pIC50. Entry: CC#CC(=O)N1CC[C@]2(C1)C[C@H](n1nc(-c3cnn(Cc4ccc(Cl)c(C(F)(F)F)c4)c3)c(C(N)=O)c1N)C2 [Example 58]
// result 8.47

// query Requested read-out: pIC50. Entry: CC#CC(=O)N1CC[C@]2(C1)C[C@H](n1nc(-c3cnn(Cc4cccc(Cl)c4)c3)c(C(N)=O)c1N)C2 [Example 2]
// result 9.52
